Assay: chemical genetic growth profiling, strain panel (AID 1159580);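 further: tested at 20 µM; growth read once vehicle control cultures reached saturation at 30 °C; 1 = growth at the plate median or of vehicle wells; lower values mean less growth of the strain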
Conditions: S. cerevisiae deletion strains, growth OD, locus YLR039C, strain RIC1, stronger effect = lower value
About 2,000 (36%) of roughly 5,500 compounds were called active. About 18% were inconclusive and are not listed. The list shows a part of the results.
observedProperty: normalized growth
# print the numeric value only

# count of solved cases: 6
COC(=O)CC1C(C)(C)C(OC(C)=O)[C@@H]2[C@@H](OC(C)=O)[C@]34O[C@@]2(O)[C@]1(C)C3CC[C@]1(C)C4=CC(=O)O[C@H]1c1ccoc1 (stereo partly drawn): 0.934
COc1ccc([N+](=O)[O-])c(OC)c1C(N)=O: 1.03
C[C@]12CC[C@H](O)C[C@H]1CCC1C2CC[C@]2(C)[C@@H](C3=CC(=O)OC3)[C@@H](O)C[C@]12O (stereo partly drawn): 1.15
O=C(CCCN1CCC2(CC1)C(=O)NCN2c1ccccc1)c1ccc(F)cc1: 0.995
CO[C@H]1[C@H](O)[C@@H](O[C@H]2CC[C@]3(C=O)C4CC[C@]5(C)[C@@H](C6=CC(=O)OC6)CC[C@]5(O)C4CC[C@@H]3C2)O[C@@H](C)[C@@H]1O (stereo partly drawn): 0.969
CC12CCC3C(CCC4(O)CC(O)CCC34/C=N/NC(N)=O)C1(O)CCC2C1=CC(=O)OC1 (stereo not drawn): 1.06

Look up normalized growth for this compound: COC1C(O)C(O[C@H]2CC[C@]3(C=O)C4C(CC[C@]3(O)C2)[C@@]2(O)CC[C@H](C3=CC(=O)OC3)[C@@]2(C)C[C@H]4OC(C)=O)OC(C)C1OC(C)=O (stereo partly drawn)
1.1

Given `Nc1nc(/C(=C/CC(=O)O)C(=O)N[C@@H]2C(=O)N3C(C(=O)O)=CCS[C@H]23)cs1` , state its recorded normalized growth.
1.03

---

Assay: chemical genetic growth profiling, strain panel (AID 1159580);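 further: tested at 20 µM; growth read once vehicle control cultures reached saturation at 30 °C; 1 = growth at the plate median or of vehicle wells; lower values mean less growth of the strain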
Settings: S. cerevisiae deletion strains, growth OD, locus YJL129C, strain trk1
The campaign covered roughly 5,500 compounds. About 2,000 (36%) were called active. Inconclusive results (about 18%) are left out. Cut-off read from the data, not from the text of the source: active = normalized growth mostly below about 0.91 (no sharp cut-off); inconclusive = no clear call, values can overlap the other calls; inactive = mostly above about 0.92. Some of the results follow.
Your response should consist of one outcome taken from 1.0 (active), 0.0 (inactive)

CC(=O)O[C@@H]1CC2C(C)(CC[C@H](O)C2(C)C)C2CC[C@]3(C)C(=CC(=O)O[C@H]3c3ccoc3)C21C (stereo partly drawn): 0.0
O=c1c(O)cc([C@H]2Oc3cc(O)cc(O)c3C[C@H]2O)cc2c([C@H]3Oc4cc(O)cc(O)c4C[C@H]3O)cc(O)c(O)c12: 1.0
Oc1ccc2c3c1OC1[C@@H](O)CC[C@@]4(O)[C@@H](C2)N(CC2CCC2)CC[C@]314 (stereo partly drawn): 0.0
CNC[C@H](O)c1cccc(O)c1: 0.0
CO[C@@H]1[C@@H](OC(N)=O)[C@@H](O)[C@H](Oc2ccc3c(O)c(NC(=O)c4ccc(O)c(CC=C(C)C)c4)c(=O)oc3c2C)OC1(C)C: 0.0

Tell me the recorded outcome of this test for CC1(C)C(=O)CC[C@@]2(C)C1C[C@@H](O)[C@@]1(C)C3=CC(=O)O[C@@H](c4ccoc4)[C@]3(C)CCC21 (stereo partly drawn) .
0.0

What did this assay record as the result for C[C@@H]1CC[C@@]23CCC4(C)[C@@](C=CC5[C@@]6(C)CCC(=O)C(C)(C)C6CC[C@]54C)(OC2=O)C3[C@H]1C (stereo partly drawn) ?
0.0

What is the recorded call for this compound in the test? `Oc1ccc([C@H]2Oc3cc(O)cc(O)c3C[C@H]2O)cc1`
0.0

Attribution: PubChem BioAssay AID1159580
